- TARGET OR TEST SYSTEM: Eukaryotic translation initiation factor 4H (Homo sapiens)
- TEST PROTOCOL: human eIF4H binding inhibitors, primary screen, translation initiation inhibitor project, biochemical, uHTS, fluorescence polarization (AID 2012);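 also: calls also rest on retests at 20 µM and on dose response follow-up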
- CONDITION DESCRIPTION: eIF4H fluorescence polarization binding assay; confirmation average; at 20 µM; stronger effect = higher value
In all, about 290,000 compounds went through this assay and about 2,700 (0.93%) were called active. Only a selection was taken, and actives are over-represented in it overall.
Each entry below carries its reported inhibition.
Numbers only here, please. The scale is %.

Some solved entries appear below for comparison.
COMPOUND	inhibition, %
O=S1(=O)CCN(Cc2ccccc2Cl)CC1	81.5
CCOc1ccc(-n2cnnn2)cc1S(=O)(=O)N1CCC(C)CC1C (stereo not given)	90.8

// inhibition value for `Cc1cc(C(=O)COC(=O)C2CC2)c(C)n1-c1ccc(F)cc1` : 52.5

So, CC1CN(C(=O)c2ccccc2NS(=O)(=O)c2cccc([N+](=O)[O-])c2)CC(C)O1 (stereo not given) ? Its inhibition was 95.9

`O=C(CCCN1C(=O)/C(=C/c2ccco2)SC1=S)Nc1ccccc1` yielded inhibition of 3.8
